System: Boll Weevils
method: Competitive field test with released weevils, four trap array
Type: in vivo, Anthonomus grandis
test_parameters: 1.0 mg of the compound
property: synergism with grandlure (0.8 mg) in competition with grandlure (0.8 mg) alone

[
  {
    "compound": "CCCCCCO",
    "measured": "effective synergists"
  },
  {
    "compound": "CC/C=C\\CCO [cis-3-hexen-1-ol]",
    "measured": "effective synergists"
  }
]

----------
Tested on: Single Olfactory Cells Responsive to Volatiles Emanating from a Crushed Cotton Square
method: Single-cell electrophysiology: action potentials from single olfactory cells
Format: cell-based, Anthonomus grandis
test_parameters: volatiles emanating from 1 μg of odorant; cell responsive to crushed cotton square
Description: Single-cell recording techniques are described in detail elswhere [Dickens, Mitt. Schweiz. Entomol. Ges. 52: 203 (1979); Dickens et al., J. Chem. Ecol. 10: 583 (1984)]. In brief, microelectrodes used for recordings were constructed from 50.8 μm diameter tungsten wire electrolytically sharpened to a tip of 1-2 μm. […] Trains of action potentials were counted visually. […]
# key: entry, value: Response in impulses/initial 500 msec, Cell #4
Write it as a number; the unit impulses/initial 500 msec goes unstated.

Here are 2 molecules together with their reported answers.
[
  {
    "molecule": "CCCCCC=O",
    "measured": 27
  },
  {
    "molecule": "CCC/C=C/CO [trans-2-hexen-1-ol]",
    "measured": 33
  }
]

[Q] // query Response in impulses/initial 500 msec, Cell #4 value for entry C=CC(C)(O)CCC=C(C)C (stereo not shown)
[A] 11

[Q] // query Response in impulses/initial 500 msec, Cell #4 value for entry `CCCCCCC=O`
[A] 16

----------
Test system: Single Olfactory Cells Responsive to Volatiles Emanating from a Crushed Cotton Square
method: Single-cell electrophysiology: action potentials from single olfactory cells
Type: cell-based, Anthonomus grandis
test_parameters: volatiles emanating from 1 μg of odorant; cell responsive to crushed cotton square
# key: entry, value: Response in impulses/initial 500 msec, Cell #4
Give your result as the value with the unit written after it.

Here are 2 molecules together with their reported answers.
[
  {
    "molecule": "CCCCCCCCC=O [nonanal]",
    "tested_target": "Single Olfactory Cells Responsive to Volatiles Emanating from a Crushed Cotton Square",
    "measured": "4 impulses/initial 500 msec"
  },
  {
    "molecule": "C=C1CC/C=C(\\C)CC[C@@H]2[C@@H]1CC2(C)C [β-caryophyllene]",
    "tested_target": "Single Olfactory Cells Responsive to Volatiles Emanating from a Crushed Cotton Square",
    "measured": "1 impulses/initial 500 msec"
  }
]

[Q] // query Response in impulses/initial 500 msec, Cell #4 value for entry CCC/C=C/C=O [trans-2-hexenal]
[A] 38 impulses/initial 500 msec
